# target-desc: Cdk5/p25 (Homo sapiens)
# experiment-notes: Cyclin-Dependent Kinase 5 (cdk5) Assay
# Type: biochemical
# recorded-conditions: Table 1
# Protocol: Cyclin-Dependent Kinase 5 (cdk5) Assay Enzyme assays for IC50 determinations and kinetic evaluation were performed in 96-well filter plates (Millipore MAPH NOB 10). […] All components except histone and ATP were added to wells, and the plate was placed on a shaker for 5 minutes. […] The wells were then washed three times with 0.2 mL of 75 mM phosphoric acid and ^32P incorporation was determined with a beta plate counter (Wallac Inc, Gaithersburg, Md.).
experimental-endpoint: pIC50
Would you please state pIC50, meaning minus log10 of the concentration in mol/L, as a bare number?

Field: example entries. Status: answers known.
O=c1ccc2cnc(Nc3ccc(N4CCCCC4)cc3)nc2n1[C@H]1C[C@H]2CC[C@@H]1C2 (relative stereo)
6.54
CCN(CC)CCOc1ccc(Nc2ncc3ccc(=O)n(-c4ccccc4)c3n2)cc1
6.63
CCN(CC)CCOc1ccc(Nc2ncc3ccc(=O)n(C4CC5CCC4C5)c3n2)cc1 (centres unmarked)
7.27

Kindly note the recorded pIC50 for `CC1CCN(c2ccc(Nc3ncc4ccc(=O)n(C5CCCCC5)c4n3)cc2)CC1` , which is 8.16

Kindly note the recorded pIC50 for `O=c1ccc2cnc(Nc3ccc(N4CCc5ccccc5C4)cc3)nc2n1C1CCCCC1` , which is 6.38

Kindly note the recorded pIC50 for `CCn1c(=O)ccc2cnc(Nc3ccccc3)nc21` , which is 7.19

Kindly note the recorded pIC50 for `CC(C)Cn1c(=O)ccc2cnc(Nc3ccccc3)nc21` , which is 7.82

Kindly note the recorded pIC50 for `CCn1c(=O)c(C)cc2cnc(Nc3ccc(N4CCN(C)CC4)cc3)nc21` , which is 6.12

Ref: patent US20040224958A1
